Measured values drawn from ChEMBL document CHEMBL4130599 for this set.

target_or_system: Metabotropic glutamate receptor 6 (Homo sapiens)
measurement_description: Agonist activity at mGlu6 receptor (unknown origin)
assay_metric: EC50

Ask: Item under review: COc1ccc(C(=O)Nc2cc(OC(F)(F)F)ccc2-n2cncn2)cc1OC . Reported EC50?
Reply: > 10 µM

###

target_or_system: Metabotropic glutamate receptor 3 (Homo sapiens)
Sequence (Q14832 whole entry): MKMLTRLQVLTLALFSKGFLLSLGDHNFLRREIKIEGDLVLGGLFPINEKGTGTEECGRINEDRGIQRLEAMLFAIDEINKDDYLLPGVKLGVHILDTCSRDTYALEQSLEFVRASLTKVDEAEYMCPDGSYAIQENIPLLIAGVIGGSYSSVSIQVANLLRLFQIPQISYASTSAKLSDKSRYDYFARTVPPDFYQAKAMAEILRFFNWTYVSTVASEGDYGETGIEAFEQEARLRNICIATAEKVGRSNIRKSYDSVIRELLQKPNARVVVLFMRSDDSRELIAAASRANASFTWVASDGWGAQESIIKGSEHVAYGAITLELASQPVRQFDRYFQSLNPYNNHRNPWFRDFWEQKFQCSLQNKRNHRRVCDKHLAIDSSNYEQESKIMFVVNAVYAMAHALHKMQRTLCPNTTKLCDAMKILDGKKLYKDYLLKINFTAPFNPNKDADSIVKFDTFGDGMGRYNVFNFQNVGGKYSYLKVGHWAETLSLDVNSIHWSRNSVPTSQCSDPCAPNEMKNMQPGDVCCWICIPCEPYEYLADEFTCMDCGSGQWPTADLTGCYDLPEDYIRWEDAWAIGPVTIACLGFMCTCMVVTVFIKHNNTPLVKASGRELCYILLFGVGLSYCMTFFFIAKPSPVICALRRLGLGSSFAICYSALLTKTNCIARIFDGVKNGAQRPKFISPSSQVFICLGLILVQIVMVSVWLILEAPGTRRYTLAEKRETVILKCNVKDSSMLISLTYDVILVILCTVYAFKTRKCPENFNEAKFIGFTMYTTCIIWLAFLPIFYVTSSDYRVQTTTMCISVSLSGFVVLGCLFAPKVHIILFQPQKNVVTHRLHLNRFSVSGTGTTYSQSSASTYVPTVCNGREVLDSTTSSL
measurement_description: Agonist activity at mGlu3 receptor (unknown origin)
assay_metric: EC50

Ask: Entry COc1ccc(C(=O)Nc2cc(OC(F)(F)F)ccc2-n2cncn2)cc1OC has what EC50?
Reply: > 10 µM

###

target_or_system: Metabotropic glutamate receptor 6 (Homo sapiens, UniProt O15303)
Sequence (O15303 whole entry): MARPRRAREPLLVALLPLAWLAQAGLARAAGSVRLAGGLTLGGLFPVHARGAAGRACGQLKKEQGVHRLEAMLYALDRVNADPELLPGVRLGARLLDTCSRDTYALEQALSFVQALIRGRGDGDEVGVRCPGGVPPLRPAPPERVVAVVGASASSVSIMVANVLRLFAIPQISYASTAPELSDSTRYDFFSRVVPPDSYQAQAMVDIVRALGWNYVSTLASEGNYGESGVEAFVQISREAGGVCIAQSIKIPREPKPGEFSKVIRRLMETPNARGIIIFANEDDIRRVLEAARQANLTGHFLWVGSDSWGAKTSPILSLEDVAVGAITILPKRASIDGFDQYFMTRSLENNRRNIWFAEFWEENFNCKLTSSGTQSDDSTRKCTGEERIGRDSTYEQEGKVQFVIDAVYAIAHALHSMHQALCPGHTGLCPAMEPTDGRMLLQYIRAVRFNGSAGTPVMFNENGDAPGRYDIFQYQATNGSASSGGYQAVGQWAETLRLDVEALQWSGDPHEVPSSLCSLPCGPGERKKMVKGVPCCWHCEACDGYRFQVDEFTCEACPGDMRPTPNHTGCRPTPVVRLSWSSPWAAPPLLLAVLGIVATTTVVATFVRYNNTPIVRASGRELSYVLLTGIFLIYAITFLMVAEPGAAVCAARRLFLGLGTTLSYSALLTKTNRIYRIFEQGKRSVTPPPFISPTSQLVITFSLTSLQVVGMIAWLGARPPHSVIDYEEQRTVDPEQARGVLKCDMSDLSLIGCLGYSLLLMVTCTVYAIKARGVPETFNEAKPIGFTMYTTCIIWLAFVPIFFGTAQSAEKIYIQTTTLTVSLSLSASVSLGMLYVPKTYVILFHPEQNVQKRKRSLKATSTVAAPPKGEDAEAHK
measurement_description: Antagonist activity at mGlu6 receptor (unknown origin)
Assay type: functional
assay_metric: IC50

Ask: IC50 for COc1ccc(C(=O)Nc2cc(OC(F)(F)F)ccc2-n2cncn2)cc1OC ?
Reply: > 10 µM

###

target_or_system: Metabotropic glutamate receptor 1 (Homo sapiens, UniProt Q13255)
measurement_description: Agonist activity at mGlu1 receptor (unknown origin)
pEC50: −log10 of the molar value.
assay_metric: pEC50

Ask: Suppose we examine the molecule COc1ccc(C(=O)Nc2cc(OC(F)(F)F)ccc2-n2cncn2)cc1OC ; what pEC50 value has been reported?
Reply: < 5.00

###

measurement_description: Protein binding in mouse plasma assessed as unbound fraction measured after 4 hrs by LC-MS/MS based equilibrium dialysis method
Assay type: ADME, cell-free
Mark 1 (yes) only when fraction unbound at 4 h stays strictly below 0.06. Values equal to the cut-off are 0 (no).

- structure_smiles_string: "CCOc1ccc(C(=O)Nc2cc(OC(F)(F)F)ccc2-n2cncn2)cc1OC"
  group_label: "0 (no)"

Ask: Strictly below 0.06 in fraction unbound at 4 h? COc1cc(C(=O)Nc2cc(OC(F)(F)F)ccc2-n2cncn2)ccc1OC(C)C
Reply: 0 (no)

Ask: Please state whether fraction unbound at 4 h is below 0.06 for CCCOc1ccc(C(=O)Nc2cc(OC(F)(F)F)ccc2-n2cncn2)cc1OC
Reply: 1 (yes)

Ask: Would you kindly verify if fraction unbound at 4 h of COc1ccc(C(=O)Nc2cc(OC(F)(F)F)ccc2-n2cncn2)cc1OC is strictly less than 0.06?
Reply: 0 (no)

Ask: Answer whether the molecule COc1cc(C(=O)Nc2cc(OC(F)(F)F)ccc2-n2cncn2)ccc1OC1CC1 has fraction unbound at 4 h strictly less than 0.06
Reply: 1 (yes)

###

measurement_description: Unbound brain to plasma concentration ratio in C57/Bl6 mouse at 100 mg/kg, ip measured after 0.5 hrs by LC-MS/MS analysis
Assay type: ADME, organism-based
experimental_conditions: brain and plasma, read-out: K(p,uu,brain)
assay_metric: Kp uu at 0.5 h

Ask: Record request: Kp uu at 0.5 h value, item COc1ccc(C(=O)Nc2cc(OC(F)(F)F)ccc2-n2cncn2)cc1OC
Reply: 0.43

###

measurement_description: Protein binding in rat plasma assessed as unbound fraction measured after 4 hrs by LC-MS/MS based equilibrium dialysis method
Assay type: ADME, cell-free
assay_metric: fraction unbound at 4 h
Form: value (number only, do not type unit).

Worked examples follow.
- structure_smiles_string: "COc1cc(C(=O)Nc2cc(OC(F)(F)F)ccc2-n2cncn2)ccc1OC(C)C"
  fraction unbound at 4 h: 0.065
- structure_smiles_string: "COc1cc(C(=O)Nc2cc(OC(F)(F)F)ccc2-n2cncn2)ccc1OC1CC1"
  fraction unbound at 4 h: 0.052
- structure_smiles_string: "CCOc1ccc(C(=O)Nc2cc(OC(F)(F)F)ccc2-n2cncn2)cc1OC"
  fraction unbound at 4 h: 0.072

Now for another entry.
Ask: Which fraction unbound at 4 h is reported for this compound? CCCOc1ccc(C(=O)Nc2cc(OC(F)(F)F)ccc2-n2cncn2)cc1OC
Reply: 0.017

###

measurement_description: Unbound brain to plasma concentration ratio in C57/Bl6 mouse at 10 mg/kg, ip measured after 0.5 hrs by LC-MS/MS analysis
Type: ADME, organism-based
experimental_conditions: brain and plasma, read-out: K(p,uu,brain)
assay_metric: Kp uu at 0.5 h

Ask: Fill in: Kp uu at 0.5 h of COc1ccc(C(=O)Nc2cc(OC(F)(F)F)ccc2-n2cncn2)cc1OC is ___
Reply: 0.44

###

target_or_system: Metabotropic glutamate receptor 1 (Homo sapiens, UniProt Q13255)
measurement_description: Antagonist activity at mGlu1 receptor (unknown origin)
assay_metric: IC50

Ask: Look up IC50 for this molecule: COc1ccc(C(=O)Nc2cc(OC(F)(F)F)ccc2-n2cncn2)cc1OC
Reply: > 10 µM

###

measurement_description: Drug level in C57/Bl6 mouse brain at 100 mg/kg, ip by LC-MS/MS analysis
Format: ADME, organism-based
experimental_conditions: in vivo, read-out: Drug uptake
assay_metric: concentration (nM)
Express your answer in nM, writing the number without its unit.

Ask: Returns the measured concentration for the input compound. Input: COc1ccc(C(=O)Nc2cc(OC(F)(F)F)ccc2-n2cncn2)cc1OC
Reply: 1550

###

target_or_system: Metabotropic glutamate receptor 5 (Homo sapiens, UniProt P41594)
Sequence (P41594 whole entry): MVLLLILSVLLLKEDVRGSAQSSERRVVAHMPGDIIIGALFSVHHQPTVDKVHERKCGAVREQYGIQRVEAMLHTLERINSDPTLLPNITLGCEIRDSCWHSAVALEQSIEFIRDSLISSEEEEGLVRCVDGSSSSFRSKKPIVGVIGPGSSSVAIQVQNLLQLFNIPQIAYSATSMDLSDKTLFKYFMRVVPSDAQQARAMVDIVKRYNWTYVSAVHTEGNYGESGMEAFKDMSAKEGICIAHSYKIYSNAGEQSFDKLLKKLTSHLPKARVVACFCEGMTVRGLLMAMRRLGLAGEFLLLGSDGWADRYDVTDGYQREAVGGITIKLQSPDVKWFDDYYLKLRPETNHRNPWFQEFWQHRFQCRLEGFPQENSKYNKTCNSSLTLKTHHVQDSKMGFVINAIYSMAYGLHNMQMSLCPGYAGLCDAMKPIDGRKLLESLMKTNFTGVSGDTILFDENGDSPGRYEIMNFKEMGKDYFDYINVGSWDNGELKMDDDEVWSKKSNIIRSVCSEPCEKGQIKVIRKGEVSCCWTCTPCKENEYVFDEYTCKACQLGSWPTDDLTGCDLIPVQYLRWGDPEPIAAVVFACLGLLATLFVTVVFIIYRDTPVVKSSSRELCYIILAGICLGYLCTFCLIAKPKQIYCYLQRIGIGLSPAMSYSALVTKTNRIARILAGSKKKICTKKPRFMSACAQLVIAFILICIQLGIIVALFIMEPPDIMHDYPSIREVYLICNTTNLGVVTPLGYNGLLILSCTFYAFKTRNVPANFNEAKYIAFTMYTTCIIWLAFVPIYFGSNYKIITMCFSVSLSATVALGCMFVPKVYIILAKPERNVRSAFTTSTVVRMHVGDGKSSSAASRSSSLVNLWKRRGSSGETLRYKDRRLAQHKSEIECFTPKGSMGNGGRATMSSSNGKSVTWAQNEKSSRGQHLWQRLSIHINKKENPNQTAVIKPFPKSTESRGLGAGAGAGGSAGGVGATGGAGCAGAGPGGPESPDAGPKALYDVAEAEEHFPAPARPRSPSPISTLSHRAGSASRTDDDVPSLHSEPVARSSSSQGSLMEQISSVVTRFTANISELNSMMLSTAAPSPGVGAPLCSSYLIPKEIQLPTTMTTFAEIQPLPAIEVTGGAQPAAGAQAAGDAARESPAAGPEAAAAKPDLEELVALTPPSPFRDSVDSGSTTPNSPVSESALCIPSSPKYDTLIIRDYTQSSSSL
measurement_description: Agonist activity at mGlu5 receptor (unknown origin)
assay_metric: EC50

Ask: Any idea what its EC50 is? The molecule is COc1ccc(C(=O)Nc2cc(OC(F)(F)F)ccc2-n2cncn2)cc1OC
Reply: > 10 µM

###

measurement_description: Unbound brain to plasma concentration ratio in C57/Bl6 mouse at 30 mg/kg, ip measured after 0.5 hrs by LC-MS/MS analysis
Assay type: ADME, organism-based
experimental_conditions: brain and plasma, read-out: K(p,uu,brain)
assay_metric: Kp uu at 0.5 h
Reply: number alone, nothing else.

Ask: Entry under review: COc1ccc(C(=O)Nc2cc(OC(F)(F)F)ccc2-n2cncn2)cc1OC . Reported Kp uu at 0.5 h?
Reply: 0.51

###

measurement_description: Brain to plasma partition coefficient, Kp of the compound in C57/Bl6 mouse at 30 mg/kg, ip measured after 0.5 hrs by LC-MS/MS analysis
Type: ADME, organism-based
experimental_conditions: brain and plasma
assay_metric: Kp at 0.5 h
Write the value as a bare number.

Ask: Requested field: Kp at 0.5 h. Item: COc1ccc(C(=O)Nc2cc(OC(F)(F)F)ccc2-n2cncn2)cc1OC
Reply: 2.36

###

target_or_system: UniProtKB P41594
measurement_description: Antagonist activity at mGlu5 receptor (unknown origin)
assay_metric: IC50

Ask: Endpoint output: IC50 of COc1ccc(C(=O)Nc2cc(OC(F)(F)F)ccc2-n2cncn2)cc1OC . Value?
Reply: > 10 µM

###

target_or_system: Metabotropic glutamate receptor 7 (Rattus norvegicus, UniProt P35400)
Sequence (P35400 whole entry): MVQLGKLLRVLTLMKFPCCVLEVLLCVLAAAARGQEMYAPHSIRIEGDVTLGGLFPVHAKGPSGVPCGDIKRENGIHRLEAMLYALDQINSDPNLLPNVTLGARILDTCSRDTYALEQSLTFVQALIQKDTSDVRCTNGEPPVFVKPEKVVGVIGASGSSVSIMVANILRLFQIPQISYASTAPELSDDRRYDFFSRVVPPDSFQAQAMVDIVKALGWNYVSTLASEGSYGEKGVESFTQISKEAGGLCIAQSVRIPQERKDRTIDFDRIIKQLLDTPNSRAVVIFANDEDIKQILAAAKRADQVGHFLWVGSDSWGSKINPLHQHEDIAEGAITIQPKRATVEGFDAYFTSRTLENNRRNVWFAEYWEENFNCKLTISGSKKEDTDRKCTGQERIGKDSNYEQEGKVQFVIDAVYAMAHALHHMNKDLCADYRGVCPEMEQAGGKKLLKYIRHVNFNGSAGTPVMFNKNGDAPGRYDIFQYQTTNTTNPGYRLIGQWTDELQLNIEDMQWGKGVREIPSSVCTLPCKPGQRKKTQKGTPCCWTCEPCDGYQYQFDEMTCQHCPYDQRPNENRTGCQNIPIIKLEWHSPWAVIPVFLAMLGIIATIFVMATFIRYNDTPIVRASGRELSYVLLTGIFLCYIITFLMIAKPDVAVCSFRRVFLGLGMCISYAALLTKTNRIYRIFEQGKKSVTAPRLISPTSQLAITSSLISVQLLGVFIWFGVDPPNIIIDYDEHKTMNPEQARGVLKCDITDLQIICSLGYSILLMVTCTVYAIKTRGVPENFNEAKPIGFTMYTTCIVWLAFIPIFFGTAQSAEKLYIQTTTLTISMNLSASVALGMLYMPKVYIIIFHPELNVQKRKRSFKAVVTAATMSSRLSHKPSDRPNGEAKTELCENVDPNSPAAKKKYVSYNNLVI
measurement_description: Negative allosteric modulation of rat mGlu7 expressed in HEK cells co-expressing Galpha15 assessed as reduction in L-AP4-induced intracellular calcium flux pretreated for 142 secs followed by glutamate addition and subsequent stimulation of L-AP4 for 40 secs by Fluo-4 AM dye based fluorescence assay
# pIC50 annotations
pIC50 field: float, defined as -log10 of concentration (mol/L).

Check out these entries, answers already filled in.
- molecule: "COc1ccc(C(=O)Nc2cc(Cl)ccc2-n2cncn2)cc1OC"
  pIC50: 5.24
- molecule: "CCc1nc2c(o1)CC(c1ccc(C)cc1C)CC2=O (centres undefined)"
  pIC50: 6.17

Ask: Given the entry COc1cc(C(=O)Nc2cc(OC(F)(F)F)ccc2-n2cncn2)ccc1OC1CCCC1 , what pIC50 was observed with Metabotropic glutamate receptor 7 (Rattus norvegicus, UniProt P35400)?
Reply: 5.85

Ask: For the record COc1cc(C(=O)Nc2cc(OC(F)(F)F)ccc2-n2cncn2)ccc1OC1CC1 , what value of pIC50 is listed for Metabotropic glutamate receptor 7 (Rattus norvegicus, UniProt P35400)?
Reply: 6.15

###

target_or_system: Metabotropic glutamate receptor 4 (Homo sapiens, UniProt Q14833)
Sequence (Q14833 whole entry): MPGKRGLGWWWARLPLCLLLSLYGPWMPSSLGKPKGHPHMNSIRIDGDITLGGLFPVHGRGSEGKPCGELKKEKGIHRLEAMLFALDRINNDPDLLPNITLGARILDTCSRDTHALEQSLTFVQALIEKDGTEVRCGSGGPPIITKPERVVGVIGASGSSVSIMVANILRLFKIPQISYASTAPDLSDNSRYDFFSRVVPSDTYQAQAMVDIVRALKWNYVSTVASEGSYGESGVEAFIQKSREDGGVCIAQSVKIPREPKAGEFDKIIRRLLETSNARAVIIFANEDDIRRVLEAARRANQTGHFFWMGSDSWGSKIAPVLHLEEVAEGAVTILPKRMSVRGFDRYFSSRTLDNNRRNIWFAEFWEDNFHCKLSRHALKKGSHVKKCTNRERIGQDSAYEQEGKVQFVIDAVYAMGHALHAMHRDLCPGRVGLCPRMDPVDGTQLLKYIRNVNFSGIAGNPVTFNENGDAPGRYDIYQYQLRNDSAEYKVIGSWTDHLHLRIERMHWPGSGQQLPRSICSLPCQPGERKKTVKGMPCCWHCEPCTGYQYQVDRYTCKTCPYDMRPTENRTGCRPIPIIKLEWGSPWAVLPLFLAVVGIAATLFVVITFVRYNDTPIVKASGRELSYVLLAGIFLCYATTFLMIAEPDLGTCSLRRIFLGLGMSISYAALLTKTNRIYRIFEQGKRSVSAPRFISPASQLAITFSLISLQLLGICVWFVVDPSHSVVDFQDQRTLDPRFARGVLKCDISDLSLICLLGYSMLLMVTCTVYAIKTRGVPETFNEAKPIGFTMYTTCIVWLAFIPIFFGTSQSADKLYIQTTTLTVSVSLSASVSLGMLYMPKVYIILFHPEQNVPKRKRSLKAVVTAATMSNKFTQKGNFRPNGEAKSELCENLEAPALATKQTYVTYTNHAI
measurement_description: Agonist activity at human mGlu4 expressed in CHO cells co-expressing Gqi5 after 142 secs by Fluo-4AM dye based calcium flux assay
pEC50: −log10 of the molar value.
assay_metric: pEC50

Ask: Sample COc1ccc(C(=O)Nc2cc(OC(F)(F)F)ccc2-n2cncn2)cc1OC — what was its pEC50?
Reply: < 5.00

###

measurement_description: Protein binding in rat brain assessed as unbound fraction measured after 6 hrs by LC-MS/MS based equilibrium dialysis method
Type: ADME, tissue-based
# maps each entry to its fraction unbound at 6 h
Number, no unit, nothing else.

Answered examples (2):
- structure_smiles_string: "CCCOc1ccc(C(=O)Nc2cc(OC(F)(F)F)ccc2-n2cncn2)cc1OC"
  fraction unbound at 6 h: 0.009
- structure_smiles_string: "COc1ccc(C(=O)Nc2cc(OC(F)(F)F)ccc2-n2cncn2)cc1OC"
  fraction unbound at 6 h: 0.034

Ask: Which fraction unbound at 6 h value is on record for CCOc1ccc(C(=O)Nc2cc(OC(F)(F)F)ccc2-n2cncn2)cc1OC ?
Reply: 0.017

Ask: For the compound COc1cc(C(=O)Nc2cc(OC(F)(F)F)ccc2-n2cncn2)ccc1OC(C)C , what fraction unbound at 6 h is on record?
Reply: 0.013

Ask: Look up fraction unbound at 6 h: COc1cc(C(=O)Nc2cc(OC(F)(F)F)ccc2-n2cncn2)ccc1OC1CC1
Reply: 0.013
